Data provenance: patent US4499107A

test.method.notes: Acute toxicity
assay.context: in vivo; mouse, oral route; confidence limits in brackets
measurement.label: LD50 (mg/kg)
Answer in mg/kg, number only, no unit symbol.

Bench note: what LD50 did CCC(=O)NO [PHA, propionhydroxamic acid] show? 2370
